tested on: 292921-168-R-J2-PDC complex spheroid viability; test: Anticancer human tumor 292921-168-R-J2-PDC patient-derived pancreatic carcinoma cell line growth inhibition; settings: second compound 3.16 µM; first compound 0.1 µM; hits give low values;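 note: seven day compound exposure before luminescent viability read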
Response field label: string, one of y (viability, T/C strictly below 30%) or n.

# COMPOUND, CLASS
records = [
    ("CC(C)CC(NC(=O)C(Cc1ccccc1)NC(=O)c1cnccn1)B(O)O (stereo unspecified) + NC1CC1c1ccc(-c2cccc(O)c2)cc1", "y"),
    ("O=C(C=Cn1cnc(-c2cc(C(F)(F)F)cc(C(F)(F)F)c2)n1)NNc1cnccn1 + NC1CC1c1ccc(-c2cccc(O)c2)cc1", "y"),
]

For the next question, use this compound.
Q: Answer whether the compound CC(C)c1c(-c2ccccc2)nc2c(C#N)c[nH]n2c1=O + NC1CC1c1ccc(-c2cccc(O)c2)cc1 has viability, T/C strictly less than 30%
Result: n
